Please provide measured IC50 for the entries that follow.
# assayed-target: Human-SGLT2 (Homo sapiens)
# Sequence (P31639 1-672): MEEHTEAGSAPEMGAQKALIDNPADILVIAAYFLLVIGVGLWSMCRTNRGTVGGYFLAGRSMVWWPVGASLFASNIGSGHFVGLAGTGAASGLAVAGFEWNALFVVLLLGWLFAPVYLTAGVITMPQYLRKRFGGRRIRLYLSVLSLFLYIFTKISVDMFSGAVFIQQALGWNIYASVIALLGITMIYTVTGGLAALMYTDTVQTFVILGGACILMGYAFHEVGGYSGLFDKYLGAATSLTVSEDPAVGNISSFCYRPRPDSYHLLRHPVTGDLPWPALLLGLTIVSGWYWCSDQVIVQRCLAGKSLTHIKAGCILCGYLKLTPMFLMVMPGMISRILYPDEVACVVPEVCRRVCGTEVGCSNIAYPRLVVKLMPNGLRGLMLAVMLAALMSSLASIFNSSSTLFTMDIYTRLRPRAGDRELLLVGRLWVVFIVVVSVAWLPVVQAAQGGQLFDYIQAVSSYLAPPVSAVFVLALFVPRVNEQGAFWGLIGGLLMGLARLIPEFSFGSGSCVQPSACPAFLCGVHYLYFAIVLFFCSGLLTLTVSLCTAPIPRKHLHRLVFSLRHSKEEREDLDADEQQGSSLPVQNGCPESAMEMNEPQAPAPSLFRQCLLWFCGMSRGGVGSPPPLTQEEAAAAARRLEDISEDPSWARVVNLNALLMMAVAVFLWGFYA
# assay: SGLT2 glucose transport assay ([14C]-methyl α-D-glucopyranoside uptake)
# experimental-conditions: cells stably expressing Human-SGLT2, 37° C. for 2 hours
# Procedure: The effect of the compound on the glucose transport activity of the SGLT2 transporter was detected by measuring the amount of [^14C]-labeled glucose entering cells highly expressing Human-SGLT2. The cells stably expressing Human-SGLT2 used in the assay were constructed by Shanghai WuXi AppTec. The SGLT2 cells were plated on a 96-well cell culture plate (Greiner) and cultured at 5% CO2, 37° C. overnight.
Answer with the value and then the unit.

Answered cases to consult:
CCc1ccc([C@@H]2O[C@H](SC)[C@@H](O)[C@H](O)[C@H]2O)cc1Cc1ccc(OC2CCN(C(=O)C[C@@H](Cc3cc(F)c(F)cc3F)NC)CC2)cc1 :: 1.4 nM
CS[C@H]1O[C@@H](c2ccc(C)c(Cc3ccc(OC4CCN(C(=O)C[C@H](N)Cc5cc(F)c(F)cc5F)CC4)cc3)c2)[C@H](O)[C@@H](O)[C@@H]1O :: 0.8 nM
CS[C@H]1O[C@@H](c2ccc(C)c(Cc3ccc(CCCC(=O)NC(C)(C)C(=O)NCCN(C)C)cc3)c2)[C@H](O)[C@@H](O)[C@@H]1O [LX2761, reference compound] :: 1.1 nM
CS[C@H]1O[C@@H](c2cccc(Cc3ccc(OC4CCN(C(=O)C[C@H](N)Cc5cc(F)c(F)cc5F)CC4)cc3)c2)[C@H](O)[C@@H](O)[C@@H]1O :: 5.8 nM
CCc1ccc([C@@H]2O[C@H](SC)[C@@H](O)[C@H](O)[C@H]2O)cc1Cc1ccc(OC2CCN(C(=O)C[C@H](N)Cc3cc(F)c(F)cc3F)CC2)cc1 :: 0.6 nM

What IC50 appears in the records for this compound with Human-SGLT2 (Homo sapiens)? CS[C@H]1O[C@@H](c2ccc(F)c(Cc3ccc(OC4CCN(C(=O)C[C@H](N)Cc5cc(F)c(F)cc5F)CC4)cc3)c2)[C@H](O)[C@@H](O)[C@@H]1O 1.4 nM
